target: OsWRKY34 (Oryza sativa, UniProt Q0JBA9 1-250); assay: protein-binding microarray (RPBM); PBS, 2% BSA, 51.3 ng/ul salmon testes DNA, 50 uM zinc acetate, 200 nM TF, 25 C, 1 h; high values mean tight binding; conditions: protein: recombinant; tags: N-terminal polyhistidine and DsRed monomer fusion (pET32a); label: CyDye5-dUTP incorporated in the synthesized complementary strand; 3' TTTTT single-stranded linker to array surface; dsDNA, one strand shown
Sequence (Q0JBA9 entry or part of it): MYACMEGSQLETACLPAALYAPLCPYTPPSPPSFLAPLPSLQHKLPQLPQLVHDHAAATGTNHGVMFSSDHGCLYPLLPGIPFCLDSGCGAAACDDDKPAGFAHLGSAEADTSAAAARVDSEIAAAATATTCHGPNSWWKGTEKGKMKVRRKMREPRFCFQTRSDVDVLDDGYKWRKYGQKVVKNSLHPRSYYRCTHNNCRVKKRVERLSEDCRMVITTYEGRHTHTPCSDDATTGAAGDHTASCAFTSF
Whole data set: some 68,000 sequences, median “fluorescence intensity (a.u.)” near 9,100, cut for the highest 2% near 16,000. The entries come from a sample that favours the highest values as a whole.
measured-metric: binding signal

Example entries and their recorded answers appear below.
ACTTTTTTAAACATGTTTGGCCGTTCGTCTTATTCAAAAACGGAGTCACCTAGTGCAG 9620 fluorescence intensity (a.u.)
TTTTAACATTTTTCTTGCACTGTTTGACCATTCGTCTTATCGGAGTCACCTAGTGCAG 10400 fluorescence intensity (a.u.)
ACTTATATTTTTTTAACGTTTGATTGTTCGTCTTATTAAACGGAGTCACCTAGTGCAG 9470 fluorescence intensity (a.u.)
GCCGTTGACTTTTTAACACATGTTTGACCATTCGTCTTATCGGAGTCACCTAGTGCAG 60200 fluorescence intensity (a.u.)

Inquiry: Need binding signal, item CTTTTTTAAACATGTTTGACCGTTCGTCTTATTTAAAAAACGGAGTCACCTAGTGCAG
Reply text: 9350 fluorescence intensity (a.u.)

* * *

target: OsWRKY34 (Oryza sativa, UniProt Q0JBA9 1-250); assay: protein-binding microarray (RPBM); PBS, 2% BSA, 51.3 ng/ul salmon testes DNA, 50 uM zinc acetate, 200 nM TF, 25 C, 1 h; high values mean tight binding; details: protein: recombinant; tags: N-terminal polyhistidine and DsRed monomer fusion (pET32a); label: CyDye5-dUTP incorporated in the synthesized complementary strand; 3' TTTTT single-stranded linker to array surface; dsDNA, one strand shown
The full ranking holds about 68,000 sequences; the median of “fluorescence intensity (a.u.)” is about 9,100, and the highest 2% start at about 16,000. Only a selection was taken, and the highest values are over-represented in it overall.
measured-metric: binding signal

GCATCCGTGTCCTTTGCCGAAGCCGAAGGCCCGCTCTCTCCGGAGTCACCTAGTGCAG 8900 fluorescence intensity (a.u.)
CCATCTGTCATATTTGTCATCGTTGACTTTTTTAAATATACGGAGTCACCTAGTGCAG 13600 fluorescence intensity (a.u.)
CTTTGTGCTGGACCGACGACGTCGTTCGCTCTTTTATCCTCGGAGTCACCTAGTGCAG 9040 fluorescence intensity (a.u.)
AGAGGTGGAGGAGAGGAGGGGAGGGGAGGGGAGGTGAGGGCGGAGTCACCTAGTGCAG 18700 fluorescence intensity (a.u.)
CATATCTAACTTTTGACCATCCGTTTTATTTAAAAAAATACGGAGTCACCTAGTGCAG 8310 fluorescence intensity (a.u.)

Inquiry: Form field: reported binding signal of GAGGTGGTGGTGGTGGTGGTGGATGGCGCCCTGCTTTGACCGGAGTCACCTAGTGCAG
Reply text: 23500 fluorescence intensity (a.u.)

Inquiry: Data request, read-out binding signal, for TCACCCCGCCGCCGCCATCCAGGCGCCGACGACCTCCCATCGGAGTCACCTAGTGCAG
Reply text: 8840 fluorescence intensity (a.u.)

Inquiry: I would be grateful if you could share the reported binding signal for CCTCCGCTCCTAAATATTTGACACCGCTGACTTTTTAAAACGGAGTCACCTAGTGCAG .
Reply text: 11100 fluorescence intensity (a.u.)

Inquiry: Entry TGGTGGGTGCATTGTTGTTCACATTCCGGATCCCTGCATCCGGAGTCACCTAGTGCAG : reported binding signal = ?
Reply text: 9220 fluorescence intensity (a.u.)

Inquiry: Field request: binding signal | item: CGCTGCGCTGCCGGTCCATTTCTAGAAGCCCTCGCGCTCCCGGAGTCACCTAGTGCAG
Reply text: 9130 fluorescence intensity (a.u.)

Inquiry: Please give the measured binding signal for this sequence: AACAGGAGGAGGAGGAGGAGGAGGAGGAGGAGAGGTGGGGCGGAGTCACCTAGTGCAG
Reply text: 9280 fluorescence intensity (a.u.)

Inquiry: Request the reported binding signal associated with AGAATGGTCTTATATGTTGTGTAGTGGTGTGTGGGCGTGTCGGAGTCACCTAGTGCAG
Reply text: 8170 fluorescence intensity (a.u.)

Inquiry: Param item = ACTGCTGTCTCCGCGTTACTCTACGCATGCATGCATGTATCGGAGTCACCTAGTGCAG ; retrieve measured binding signal.
Reply text: 10000 fluorescence intensity (a.u.)

Inquiry: Any idea what its binding signal is? The sequence is GAAAATATCTGAAAGATACCGTTTGTCGTACTCCTTTTCTCGGAGTCACCTAGTGCAG
Reply text: 9000 fluorescence intensity (a.u.)

Inquiry: Can you share its binding signal? I mean this sequence: TTTCTGGGATATTCCATCTCATTACAGCACTCATTCTTTACGGAGTCACCTAGTGCAG
Reply text: 9350 fluorescence intensity (a.u.)

Inquiry: Return reported binding signal; argument: CCCGTTCTAATTCAGTTTCTCCCTTTCTTACCGCATGTACCGGAGTCACCTAGTGCAG
Reply text: 8490 fluorescence intensity (a.u.)

Inquiry: Need binding signal of TATTTTCCTACCATTTGATTTATTGTTAAATATACTTTTTCGGAGTCACCTAGTGCAG , thanks.
Reply text: 10200 fluorescence intensity (a.u.)

Inquiry: Find the recorded binding signal belonging to ATCAAGCCGAATAGTGCTGACATCTTCATTCTGGTTTTTTCGGAGTCACCTAGTGCAG and report it.
Reply text: 9510 fluorescence intensity (a.u.)

Inquiry: If you can, please state the reported binding signal value of TAGTCTTTGTCGTTTCCATGTATAACTCTATTTATCTTTCCGGAGTCACCTAGTGCAG .
Reply text: 12400 fluorescence intensity (a.u.)
